- ASSAY SYSTEM: T1, human serum albumin (human, UniProt P02768 25-609)
- T1 construct: also called HSA
- ASSAY TEXT: Octet HTX (ForteBio), HCAb on AHC sensor, 1:1 fit
Can you tell me Kd for the items I'm about to list?
Give bare numbers, in nM.

- BINDER: "CNG-HSA-118 (VHH) VHH: KVQLVESGGGLVQPGNSLRLSCAASGFTFSSFGMSWVRQAPGKGLEWVSSISGGGSDTLYADSVRGRFTISRDNSKNTLYLQMNSLRAEDTAVYYCTIGGSLRASSQGTLVTVSS"
  READOUT UNITS: "nM"
  Kd: 9.36

For the next question, use this binder.
Query: Give the measured Kd of CNG-HSA-101 (VHH) VHH: KVQLVESGGGLVQPGGSLRLSCAASGFTFSSFGMTWVRQAPGKGLEWVSSISGSGSDTLYADSVRGRFTISRDNSKNTLYLQMNSLRAEDTAVYYCTIGGSLSPSSQGTLVTVSS .
Result: 5.07
